- experimental.system: Delta-type opioid receptor (Mus musculus)
- Sequence (P32300 whole entry): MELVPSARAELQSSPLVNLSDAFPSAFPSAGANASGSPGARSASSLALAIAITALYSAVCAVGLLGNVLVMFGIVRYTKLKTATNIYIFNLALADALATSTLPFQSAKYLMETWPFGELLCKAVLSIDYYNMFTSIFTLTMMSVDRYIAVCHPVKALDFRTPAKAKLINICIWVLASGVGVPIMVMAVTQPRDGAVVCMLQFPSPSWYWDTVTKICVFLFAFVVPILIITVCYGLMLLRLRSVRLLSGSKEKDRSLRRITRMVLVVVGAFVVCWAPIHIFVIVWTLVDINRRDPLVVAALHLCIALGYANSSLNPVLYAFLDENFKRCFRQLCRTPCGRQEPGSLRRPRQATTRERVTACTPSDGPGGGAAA
- experiment: In vitro inhibition of electrically induced smooth muscle contractions of mouse vas deferens
Assign pIC50 to each entry below.
Formally, pIC50 is defined as -log10 of the concentration c, with c in mol/L.

**Query** Need pIC50, item CC(C)[C@H](NC(=O)[C@H]1NC(=O)[C@H](CC(=O)O)NC(=O)[C@H](Cc2ccccc2)NC(=O)[C@H](NC(=O)[C@@H](N)Cc2ccc(O)cc2)CSSC1(C)C)C(=O)NCC(N)=O
**Result** 9.60

**Query** Need pIC50, item CC(C)C(NC(=O)[C@H]1NC(=O)[C@H](CO)NC(=O)C(Cc2ccccc2)NC(=O)[C@H](NC(=O)[C@@H](N)Cc2ccc(O)cc2)C(C)(C)SSC1(C)C)C(=O)NCC(N)=O (single isomer, unassigned)
**Result** 7.04

**Query** Need pIC50, item CCCC[C@H](NC(=O)[C@H]1NC(=O)[C@H](CC(=O)O)NC(=O)C(Cc2ccccc2)NC(=O)[C@H](NC(=O)[C@@H](N)Cc2ccc(O)cc2)C(C)(C)SSC1(C)C)C(=O)NCC(N)=O (single isomer, unassigned)
**Result** 8.06

**Query** Need pIC50, item CC(C)[C@H](NC(=O)[C@H]1NC(=O)[C@H](CC(=O)O)NC(=O)[C@H](Cc2ccccc2)NC(=O)[C@H](NC(=O)[C@@H](N)Cc2ccc(O)cc2)C(C)(C)SSC1(C)C)C(=O)NCC(N)=O
**Result** 8.20

**Query** Need pIC50, item CCCC[C@H](NC(=O)[C@H]1NC(=O)[C@H](Cc2c[nH]cn2)NC(=O)C(Cc2ccccc2)NC(=O)[C@H](NC(=O)[C@@H](N)Cc2ccc(O)cc2)C(C)(C)SSC1(C)C)C(=O)N[C@@H](CC(=O)O)C(N)=O (single isomer, unassigned)
**Result** 7.90

---

- experimental.system: Delta-type opioid receptor (Mus musculus)
- experiment: In vitro inhibition of electrically induced smooth muscle contractions of mouse vas deferens
quantity.kind: IC50

**Query** Need IC50, item CC(C)C(NC(=O)[C@H]1NC(=O)[C@H](CCC(=O)O)NC(=O)C(Cc2ccccc2)NC(=O)[C@H](NC(=O)[C@@H](N)Cc2ccc(O)cc2)C(C)(C)SSC1(C)C)C(=O)NCC(N)=O (single isomer, unassigned)
**Result** 2.24 nM

**Query** Need IC50, item CC(C)[C@H](NC(=O)[C@@H]1NC(=O)[C@H](CC(=O)O)NC(=O)[C@H](Cc2ccccc2)NC(=O)[C@H](NC(=O)[C@@H](N)Cc2ccc(O)cc2)C(C)(C)SSC1(C)C)C(=O)NCC(N)=O
**Result** 920 nM

**Query** Need IC50, item CSCCC(NC(=O)[C@H](CC(C)C)NC(=O)[C@H](Cc1c[nH]cn1)NC(=O)[C@H](Cc1ccccc1)NC(=O)C(CCSC)NC(=O)[C@@H](N)Cc1ccc(O)cc1)C(=O)N[C@@H](CC(=O)O)C(N)=O (stereo in doubt)
**Result** 0.28 nM

---

Assign pIC50 to each entry below.
Formally, pIC50 is defined as -log10 of the concentration c, with c in mol/L.

**Query** Item: CCCC[C@H](NC(=O)[C@H]1NC(=O)[C@H](Cc2c[nH]cn2)NC(=O)C(Cc2ccccc2)NC(=O)[C@H](NC(=O)[C@@H](N)Cc2ccc(O)cc2)C(C)(C)SSC1(C)C)C(=O)N[C@@H](CC(=O)O)C(=O)O (single isomer, unassigned) Test system: Mu-type opioid receptor (Rattus norvegicus, UniProt P33535) Read-out: pIC50 Value: ?
**Result** 5.72

**Query** Item: CC(C)[C@H](NC(=O)[C@@H]1NC(=O)[C@H](CC(=O)O)NC(=O)[C@H](Cc2ccccc2)NC(=O)[C@H](NC(=O)[C@@H](N)Cc2ccc(O)cc2)C(C)(C)SSC1(C)C)C(=O)NCC(N)=O Test system: Mu-type opioid receptor (Rattus norvegicus, UniProt P33535) Read-out: pIC50 Value: ?
**Result** 5.92

**Query** Item: CC(C)C(NC(=O)[C@H]1NC(=O)[C@H](CCC(=O)O)NC(=O)C(Cc2ccccc2)NC(=O)[C@H](NC(=O)[C@@H](N)Cc2ccc(O)cc2)C(C)(C)SSC1(C)C)C(=O)NCC(N)=O (single isomer, unassigned) Test system: Mu-type opioid receptor (Rattus norvegicus, UniProt P33535) Read-out: pIC50 Value: ?
**Result** 5.31

**Query** Item: CCCC[C@H](NC(=O)[C@H]1NC(=O)[C@H](Cc2c[nH]cn2)NC(=O)C(Cc2ccccc2)NC(=O)[C@H](NC(=O)[C@@H](N)Cc2ccc(O)cc2)C(C)(C)SSC1(C)C)C(=O)N[C@@H](CC(=O)O)C(N)=O (single isomer, unassigned) Test system: Mu-type opioid receptor (Rattus norvegicus, UniProt P33535) Read-out: pIC50 Value: ?
**Result** 4.99

Origin of measurements: ChEMBL document CHEMBL1127486
